target: biotinylated KRAS G12C protein (GMP-PNP loaded) and GST-tagged Ras binding domain of c-RAF (Homo sapiens, UniProt P01116, C118S/C51S/C80L/G12C); test: RAS:RAF-RBD binding assay (TR-FRET); conditions: 30-minute incubation of compound with KRAS G12C before RAF-RBD; Table 4; read-out: IC50
Sequence (P01116 with tags, fused parts or gaps isoform P01116-2 G12C/C51S/C80L/C118S): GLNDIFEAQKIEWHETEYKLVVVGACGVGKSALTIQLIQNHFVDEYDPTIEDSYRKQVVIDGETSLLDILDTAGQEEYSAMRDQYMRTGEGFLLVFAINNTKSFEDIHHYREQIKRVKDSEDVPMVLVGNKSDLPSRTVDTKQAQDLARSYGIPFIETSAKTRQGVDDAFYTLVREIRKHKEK
Assign labels as follows, please: yes (1) for IC50 below 10 nM; no (0) for IC50 equal to or exceeding 10 nM.

COMPOUND	CLASS
CO[C@@H]1CCCC[C@@H]1NC/C=C/C(=O)Nc1c(F)cc(C(=O)c2cc3c4c(cccn24)-c2c(C(F)(F)F)cc4c(nc(C)n4C)c2OCC3)cc1F	no (0)
Cc1nc2c3c(c(C(F)(F)F)cc2n1C)-c1cccn2c(C(=O)c4cc(F)c(NC(=O)/C=C/CN5CCC[C@@]5(C)C(C)O)c(F)c4)cc(c12)CCO3 (single isomer, unassigned) [Example 259]	no (0)
Cc1nc2c3c(c(C(F)(F)F)cc2n1C)-c1cccn2c(C(=O)c4cc(F)c(NC(=O)/C=C/[C@@H]5C[C@@H](F)CN5)c(F)c4)cc(c12)CCO3	no (0)
COCc1nc2c3c(c(OC)cc2n1C)-c1cccn2c(C(=O)c4cc(F)c(NC(=O)/C=C/[C@@H]5C[C@@H](F)CN5)c(F)c4)cc(c12)CCN3C (atropisomer, axis not shown)	no (0)
Cc1nc2c3c(c(C(F)(F)F)cc2n1C)-c1cccn2c(C(=O)c4cc(F)c(NC(=O)/C=C/CN5CCC[C@@]5(C)C(C)O)c(F)c4)cc(c12)CCO3 (single isomer, unassigned) [Example 258]	yes (1)
CC1Cc2cc(C(=O)c3cc(F)c(NC(=O)/C=C/CN[C@H]4CCOC4)c(F)c3)n3cccc(c23)-c2c(C(F)(F)F)cc3c(ncn3C)c2O1 (single isomer, unassigned)	no (0)
COCc1nc2c3c(c(OC)cc2n1C)-c1cccn2c(C(=O)c4cc(F)c(NC(=O)/C=C/CNC(C)(C)C5CC5)c(F)c4)cc(c12)CCN3C	no (0)
CO[C@H]1CCCC[C@H]1NC/C=C/C(=O)Nc1c(F)cc(C(=O)c2cc3c4c(cccn24)-c2c(C(F)(F)F)cc4c(nc(C)n4C)c2OCC3)cc1F	no (0)
Cc1nc2c3c(c(C(F)(F)F)cc2n1C)-c1cccn2c(C(=O)c4cc(F)c(NC(=O)/C=C/CN[C@@H]5CCCC[C@@H]5O)c(F)c4)cc(c12)CCO3	yes (1)
